- system_name: EGFR V3 (Homo sapiens, UniProt P00533, DELINS30-297G)
- Construct: expressed in transfected cells; host or cells: BaF3 (murine pro-B), retroviral pMXs-IRES-Blasticidin
- Sequence (P00533 with tags, fused parts or gaps DELINS30-297G): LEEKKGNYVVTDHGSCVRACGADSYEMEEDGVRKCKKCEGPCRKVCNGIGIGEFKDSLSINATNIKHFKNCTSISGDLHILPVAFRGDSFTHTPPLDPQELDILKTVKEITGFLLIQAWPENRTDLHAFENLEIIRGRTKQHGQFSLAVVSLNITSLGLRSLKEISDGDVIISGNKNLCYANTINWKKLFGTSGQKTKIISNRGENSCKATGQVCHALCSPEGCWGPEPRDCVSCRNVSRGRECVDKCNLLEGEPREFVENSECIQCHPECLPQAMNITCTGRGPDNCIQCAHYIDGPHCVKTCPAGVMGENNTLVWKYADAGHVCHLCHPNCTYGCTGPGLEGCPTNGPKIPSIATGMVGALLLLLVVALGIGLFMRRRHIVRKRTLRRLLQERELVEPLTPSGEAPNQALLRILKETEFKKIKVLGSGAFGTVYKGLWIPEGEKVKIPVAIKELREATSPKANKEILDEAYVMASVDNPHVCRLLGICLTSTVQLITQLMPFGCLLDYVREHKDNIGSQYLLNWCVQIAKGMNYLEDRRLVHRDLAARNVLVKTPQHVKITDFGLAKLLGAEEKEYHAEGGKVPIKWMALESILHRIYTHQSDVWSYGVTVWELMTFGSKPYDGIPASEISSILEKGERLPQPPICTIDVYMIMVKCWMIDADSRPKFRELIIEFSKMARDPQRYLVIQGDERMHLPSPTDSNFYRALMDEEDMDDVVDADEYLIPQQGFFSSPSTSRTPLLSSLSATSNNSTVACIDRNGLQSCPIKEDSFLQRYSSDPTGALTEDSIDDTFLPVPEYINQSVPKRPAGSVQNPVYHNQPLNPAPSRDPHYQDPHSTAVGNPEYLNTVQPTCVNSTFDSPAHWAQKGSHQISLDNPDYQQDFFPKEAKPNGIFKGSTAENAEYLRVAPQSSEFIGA
- method_notes: Activity for inhibiting EGFR (Table A), EGFR V3 (EGFR-Viii)
- Assay type: cell-based
- condition_info: read-out: EGFR V3, potency code (IC50)
Recorded IC50 values for a group of compounds are listed next.

Please review the following examples before continuing.
compound	system_name	IC50
C=CC(=O)Nc1cc2c(Nc3ccc(OCc4ccccn4)c(Cl)c3)ncnc2cc1OCC1CCN1C (stereo not shown) [compound 116]	EGFR V3 (Homo sapiens, UniProt P00533, DELINS30-297G)	30 to 50 nM
C=CC(=O)Nc1cc2c(Nc3ccc(OCc4ccccn4)c(Cl)c3)ncnc2cc1OCC1(CN(C)C)CC1 [compound 98]	EGFR V3 (Homo sapiens, UniProt P00533, DELINS30-297G)	30 to 50 nM
C=CC(=O)Nc1cc2c(Nc3ccc(OCc4cccc(F)c4)c(Cl)c3)ncnc2cc1OCCCN1CCOCC1 [compound 3]	EGFR V3 (Homo sapiens, UniProt P00533, DELINS30-297G)	30 to 50 nM
C=CC(=O)Nc1cc2c(Nc3ccc(OCc4ccccn4)c(Cl)c3)ncnc2cc1N(C)CCCN1CCOCC1 [compound 12]	EGFR V3 (Homo sapiens, UniProt P00533, DELINS30-297G)	100 to 200 nM
C=CC(=O)Nc1cc2c(Nc3ccc(OCc4cnccn4)c(Cl)c3)ncnc2cc1OCCN1CC(OC)C1 [compound 178]	EGFR V3 (Homo sapiens, UniProt P00533, DELINS30-297G)	30 to 50 nM
C=CC(=O)Nc1cc2c(Nc3ccc(OCc4ccccn4)c(Cl)c3)ncnc2cc1OCCCN1CCCC1 [compound 22]	EGFR V3 (Homo sapiens, UniProt P00533, DELINS30-297G)	20 to 30 nM

Entry C=CC(=O)Nc1cc2c(Nc3ccc(OCc4ccccn4)c(Cl)c3)ncnc2cc1OCCC1COCCN1C (stereo not shown) [compound 120] , IC50 reported as 30 to 50 nM

* * *

- system_name: EGFR WT (Homo sapiens)
- Sequence (P00533 25-1210 N540K): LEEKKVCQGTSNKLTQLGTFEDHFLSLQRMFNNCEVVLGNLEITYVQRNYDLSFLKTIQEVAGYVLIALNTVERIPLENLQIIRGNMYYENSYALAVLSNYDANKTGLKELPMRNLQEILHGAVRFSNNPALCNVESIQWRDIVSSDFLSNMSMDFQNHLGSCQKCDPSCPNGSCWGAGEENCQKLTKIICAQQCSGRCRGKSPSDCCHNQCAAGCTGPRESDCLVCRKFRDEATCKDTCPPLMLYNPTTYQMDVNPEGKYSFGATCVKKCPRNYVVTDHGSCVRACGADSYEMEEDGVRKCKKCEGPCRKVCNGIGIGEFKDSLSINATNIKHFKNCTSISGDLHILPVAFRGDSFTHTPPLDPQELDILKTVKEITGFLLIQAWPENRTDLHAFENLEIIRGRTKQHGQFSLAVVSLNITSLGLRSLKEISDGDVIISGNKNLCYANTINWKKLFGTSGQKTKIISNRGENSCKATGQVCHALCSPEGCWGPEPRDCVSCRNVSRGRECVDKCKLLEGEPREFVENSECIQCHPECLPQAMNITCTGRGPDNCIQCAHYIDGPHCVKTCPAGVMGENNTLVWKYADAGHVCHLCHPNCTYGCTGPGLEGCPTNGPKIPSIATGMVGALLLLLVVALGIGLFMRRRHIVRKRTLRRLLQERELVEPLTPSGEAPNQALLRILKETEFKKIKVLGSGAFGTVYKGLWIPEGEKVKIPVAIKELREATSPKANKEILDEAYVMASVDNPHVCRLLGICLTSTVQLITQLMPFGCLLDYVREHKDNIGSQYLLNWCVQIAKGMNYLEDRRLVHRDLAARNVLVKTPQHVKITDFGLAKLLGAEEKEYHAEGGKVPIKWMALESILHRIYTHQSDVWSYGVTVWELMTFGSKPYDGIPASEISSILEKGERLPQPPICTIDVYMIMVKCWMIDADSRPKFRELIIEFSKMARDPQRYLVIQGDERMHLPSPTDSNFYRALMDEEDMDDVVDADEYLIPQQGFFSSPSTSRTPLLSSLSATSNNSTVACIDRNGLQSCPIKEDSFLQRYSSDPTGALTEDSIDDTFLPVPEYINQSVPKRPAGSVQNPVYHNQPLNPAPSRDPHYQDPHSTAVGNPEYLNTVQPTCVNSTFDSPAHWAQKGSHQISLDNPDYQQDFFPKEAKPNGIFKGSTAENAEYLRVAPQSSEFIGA
- method_notes: BaF3 cell proliferation assay, EGFR WT (Table A)
- Type: cell-based
- condition_info: potency code, 3 days, CellTiterGlo, read-out: EGFR WT (Activity for Inhibiting EGFR)
pIC50: −log10 of the molar value.
measurement_name: pIC50

Please review the following examples before continuing.
molecule	measurement_name	observed_result
C=CC(=O)Nc1cc2c(Nc3ccc(OCc4ccccn4)c(Cl)c3)ncnc2cc1N1CCC(N(C)C)C1 (stereo not shown) [compound 64]	pIC50	< 6.00
C=CC(=O)Nc1cc2c(Nc3cc(Cl)c(OCc4cccc(F)c4)cc3F)ncnc2cc1OCCN1CCN(C)CC1 [compound 145]	pIC50	6.70 to 7.00
C=CC(=O)Nc1cc2c(Nc3ccc(OCc4ccccn4)c(Cl)c3)ncnc2cc1OCCN1CCS(=O)(=O)CC1 [compound 125]	pIC50	6.00 to 6.30

Form field, pIC50 with EGFR WT (Homo sapiens), item C=CC(=O)Nc1cc2c(Nc3ccc(OCc4cccc(C)n4)c(Cl)c3)ncnc2cc1OCCN1CC2CCC(C1)O2 [compound 132] : < 6.00

Form field, pIC50 with EGFR WT (Homo sapiens), item C=CC(=O)Nc1cc2c(Nc3ccc(OCc4ccccn4)c(Cl)c3)ncnc2cc1C#CC(C)(C)N1CCCC1 [compound 84] : 6.00 to 6.30

Form field, pIC50 with EGFR WT (Homo sapiens), item C=CC(=O)Nc1cc2c(Nc3ccc(OCc4ccccn4)c(Cl)c3)ncnc2cc1N1CCN2CCC1C2 (stereo not shown) [compound 43] : < 6.00

Form field, pIC50 with EGFR WT (Homo sapiens), item C=CC(=O)Nc1cc2c(Nc3ccc(OCc4ccccn4)c(Cl)c3)ncnc2cc1OCC1CN(C)C1 [compound 123] : 6.52 to 6.70
